Test: small-molecule binders of probe aNOTCH3, primary screen, biochemical, small-molecule microarray, 635/667 nm fluorescence (AID 1120);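 also: probe is a biotin-tagged antibody raised against NOTCH3 rather than NOTCH3 protein; score merges spot fluorescence near 667 nm with spot signal to noise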
Details: higher = more signal
Please respond with reported composite z-score for every item in the list.
Numbers only.

CC=CC1=C(CO)[C@H](O)[C@H]2O[C@H]2[C@@H]1O : 0.213
CO[C@H]1COC(=O)CCC[C@H](C)[C@H](OC)COC(=O)CC=C[C@@H]1C : -0.189

For the next question, use this compound.
**Q:** Record request: composite z-score value, item `C=CC[C@@H]1C=C[C@H](ON=CC[C@@H]2C=C[C@H](OC(C)=O)[C@@H](COC(C)=O)O2)[C@@H](CO)O1`
**A:** 0.164

====

Test system: Human papillomavirus type 1a protein E7 (residues 44-93)
Assay: HPV1a E7 fragment binders on microarrays, primary screen, biochemical, small-molecule microarray, residues 44-93, 635 nm fluorescence (AID 1108);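 also: E7 fragment applied at 1 µg/mL in TBST for 1 h at 4 C; score combines spot fluorescence with its signal to noise ratio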
Details: small-molecule microarray binding, fluorescence 635 nm; higher = more signal
assay endpoint: composite z-score
One number for each entry.

CON(C)C(=O)c1nnc2c(n1)[nH]c1ccccc12 : -0.186

Here are 2 molecules. What values of composite z-score were reported for them?
1. COC(=O)CC=C[C@@H](C)[C@@H](C=NOC[C@@H](O)COCc1ccco1)NS(=O)(=O)c1ccc(C)cc1
2. CCN(CC)CC(O)CN1CCCCc2nc(C)c(C)cc21 (stereo not given)

**A:**
1: -1.24; 2: -0.0592

Here are 4 molecules. What values of composite z-score were reported for them?
1. O=C1CCCC=C1C(O)C1CCCCC1 (stereo not given)
2. COc1ccc(COC(=O)NN=C2C[C@@H](O)[C@@H](O)[C@@H]3[C@@H]4C(=O)N(Cc5ccccc5)C(=O)[C@@H]4CC[C@@H]23)cc1
3. COC(=O)[C@H](C)NC(=O)CCC1CC(OC(=O)NCCc2ccc(F)cc2)CC2(CCCC(COC(=O)NCCOc3ccccc3)O2)O1 (stereo not given in full)
4. CCN1C(=O)[C@H]2[C@H]3[C@H](O)[C@H](O)CC(=NO[C@@H]4O[C@H](COC(C)=O)[C@@H](OC(C)=O)[C@H](OC(C)=O)[C@H]4OC(C)=O)[C@@H]3CC[C@H]2C1=O

**A:**
1: -0.64; 2: 0.183; 3: 1.36; 4: 0.519

====

Experiment: fission yeast growth modulation, primary screen, strain 972, OD600, 24 h, no modulator (AID 1090);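 also: basal condition with compound alone and no growth modifier present; test concentration not given here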
Details: S. pombe 972 growth, called active from +8 up or from −8 down
The source made the active and inactive calls.
Valid outcomes are listed here; reply with one: active, inactive

CC1(C)O[C@H]2OC([C@H](O)CON3C(=O)c4ccccc4C3=O)[C@H](O)[C@H]2O1 (stereo partly drawn) : inactive
CC(CCN1CCCc2nc(C)c(C)cc21)=NOC[C@@H](C)[C@H](OCc1ccccc1)C(C)C : inactive
Cc1cc2c(nc1C)CCCCN2CC(O)CN1CCCc2nc(-c3ccc(Br)cc3)ccc21 (stereo not drawn) : inactive
CCOC(=O)CCN1C(=O)[C@H]2[C@H]3[C@H](O)[C@H](O)CC(=NOCC(C)C)[C@@H]3CC[C@H]2C1=O : inactive
CCN1C(=O)[C@H]2[C@H]3[C@H](O)[C@H](O)CC(=NO[C@@H](C)c4cc(-c5c(C)cc(C)cc5C)no4)[C@@H]3CC[C@H]2C1=O : inactive

Note: attention shifts to another entry.
**Q:** Assay result, entry `O=C1C2=CC[C@H]3C(=O)N(C4CCCCC4)C(=O)[C@H]3[C@H]2[C@H](O)[C@@H]2O[C@H]12` — outcome?
**A:** inactive

Each recorded value in this set is attributed to PubChem BioAssay.
